System Name: b-CA-II (bovine carbonic anhydrase II) (Bos taurus, UniProt P00921)
Sequence (P00921 2-260): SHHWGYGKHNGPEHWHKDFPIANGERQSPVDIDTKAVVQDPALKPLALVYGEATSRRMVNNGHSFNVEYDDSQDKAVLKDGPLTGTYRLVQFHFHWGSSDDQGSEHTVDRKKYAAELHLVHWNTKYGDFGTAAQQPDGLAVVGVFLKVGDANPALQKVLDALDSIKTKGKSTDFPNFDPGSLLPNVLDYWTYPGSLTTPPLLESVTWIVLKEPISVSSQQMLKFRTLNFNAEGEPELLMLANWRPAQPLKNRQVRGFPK
Metric Name: pIC50
One number for each entry, as −log10 of the molar value.

Ask: Output pIC50 of CCCCCCCC1(O)CS/C(=N\C(=O)c2ccc(Br)cc2)N1c1ccccc1-c1ccccc1 (stereo not shown) [compound 5]
Reply: 6.83
